- System: LOX IMVI melanoma
- experiment: NCI tumour cell line growth inhibition, 48 h
Listed here are molecules together with their documented TGI.

Check out these entries, answers already filled in.
molecule	assay value
COc1cc(C2S/C(=C/c3ccccc3)C(=O)N2c2ccccn2)cc(OC)c1OC (stereo not given)	26.9 µM
CC(C)Cn1cnc2c(SCc3ccccn3)nc(N)nc21	> 100 µM
CC(C)(C)c1cc2c(O)c(c1)COCc1cc(C(C)(C)C)cc(c1O)COCc1cc(C(C)(C)C)cc(c1O)COC2	> 100 µM

Ask: Please state recorded TGI (tested on LOX IMVI melanoma) of `COc1cc(N(CCC#N)CCC#N)ccc1/C(N=Nc1cccc(C)c1)=N\NC(=O)c1ccc(C)cc1`
Reply: > 100 µM

Ask: Please state recorded TGI (tested on LOX IMVI melanoma) of `Cc1cccc(/C=C2\CCCCCC2=O)c1`
Reply: > 100 µM

Ask: Please state recorded TGI (tested on LOX IMVI melanoma) of `CC1(C)N=C(N)N=C(N)N1c1ccc(CCC(=O)Nc2cccc(S(=O)(=O)F)c2)cc1`
Reply: > 100 µM

Ask: Please state recorded TGI (tested on LOX IMVI melanoma) of COC(=O)C(C(=O)C(=O)Nc1ccc(N)cc1[N+](=O)[O-])c1nc2ccc(Cl)cc2[nH]c1=O (stereo not given)
Reply: > 100 µM

Ask: Please state recorded TGI (tested on LOX IMVI melanoma) of `CCCCCC/C(CC(=O)CCC(=O)NCCc1ccccc1)=N\NC(=O)c1ccc2ccccc2c1O`
Reply: 48.5 µM

Ask: Please state recorded TGI (tested on LOX IMVI melanoma) of `CN1CCN(Cc2ccc(NC(=O)c3[nH]ncc3Nc3cc(OC4CCCC4)ncn3)cc2)CC1`
Reply: 3.83 µM

Ask: Please state recorded TGI (tested on LOX IMVI melanoma) of `CCCC(=O)Oc1cc(OC(=O)CCC)c2c(C)cc(=O)oc2c1`
Reply: > 100 µM

* * *

Listed here are compounds together with their documented TGI.
- System: UO-31 renal
- experiment: NCI tumour cell line growth inhibition, 48 h

Check out these entries, answers already filled in.
compound	measured attribute	assay value
CN1C(=O)C(C)(C)Oc2c(-c3cn(C)c(=O)c4[nH]ccc34)cc(S(C)(=O)=O)cc21	TGI	> 100 µM
CCCCCCCCC(=O)NCCN(CCN)C(=O)CCCCCCCC	TGI	26.6 µM
S=c1sscc1N1CCSc2ssc(=S)c21	TGI	> 100 µM
COc1c(OC2OC(CO)C(O)C(O)C2O)cc2c(c1OC)-c1ccc(OC)c(=O)cc1[C@@H](NC(C)=O)CC2 (some centres undefined)	TGI	> 100 µM
Cc1c(C=C(C#N)C#N)c(=O)n(C)c(=O)n1C	TGI	> 100 µM

Ask: Entry NCCSc1nc(N)c2ncn(C3OC(CO)C(O)C3O)c2n1 (centres undefined) has what TGI?
Reply: > 100 µM

* * *

Listed here are compounds together with their documented TGI.
- Tested on: KM12 colon
- experiment: NCI tumour cell line growth inhibition, 48 h

Check out these entries, answers already filled in.
compound	TGI
C[C@]12CC[C@H]3[C@@H](CCC4=CC(=O)CC[C@@]43C)[C@@H]1CC[C@@H]2OC(=O)c1cccc2c(=O)c3ccccc3[nH]c12	> 100 µM
CCc1cccc(CC)c1NC(=O)C1=CNC(C)=C(C(=O)Nc2c(CC)cccc2CC)C1c1ccc(O)c(OC)c1 (centres undefined)	87.4 µM
COc1cc2c3c4c1OCc1c5c(cc(c1-4)CC3[N+](C)(C)CC2)OCO5 (centres undefined)	> 100 µM

Now consider a different compound.
Ask: Entry `NNC(=O)CSc1nnc(CCCCCCCCc2nnc(SCC(=O)NN)o2)o1` has what TGI?
Reply: > 100 µM

Each recorded value in this set is attributed to PubChem BioAssay (NCI).
